// reported IC50 per item
Biological target: Syk kinase (Homo sapiens)
Experiment: ELISA-based Syk kinase assay (phosphorylation of HS1 peptide substrate by isolated Syk kinase)
Conditions: IC50 of Syk kinase inhibition; 2 μM ATP, 2 μM peptide substrate

COMPOUND: COc1cc(-c2[nH]c3c(C#N)cnn3c2Nc2ccc(CNC(=O)c3ccc(C(F)(F)F)nc3)cc2)cc(OC)c1OC [Compound 156]
IC50: 0.51 to 2.99 µM
//
COMPOUND: COC(=O)COc1ccc(-c2[nH]c3c(C#N)cnn3c2Nc2ccc(F)c(OC)c2)cc1OC [Compound 123]
IC50: 0.51 to 2.99 µM
//
COMPOUND: COc1cc(-c2[nH]c3c(C#N)cnn3c2Nc2ccc(Br)cc2)cc(OC)c1OC [Compound 23]
IC50: 0.51 to 2.99 µM
//
COMPOUND: N#Cc1cnn2c(Nc3ccc4c(c3)OCCO4)c(-c3ccc4cc[nH]c4c3)[nH]c12 [Compound 60]
IC50: 3 to 25 µM
//
COMPOUND: COc1cc(-c2[nH]c3c(C#N)cnn3c2Nc2ccc(CNC(=O)c3cnccc3C(F)(F)F)cc2)cc(OC)c1OC [Compound 155]
IC50: 0.51 to 2.99 µM
//
COMPOUND: COc1cc(Nc2c(-c3ccc(OC)c(OCC(N)=O)c3)[nH]c3c(C#N)cnn23)ccc1F [Compound 138]
IC50: 0.51 to 2.99 µM
//
COMPOUND: CC(=O)Nc1cccc(Nc2c(-c3ccc4c(c3)NC(=O)CO4)[nH]c3c(C#N)cnn23)c1 [Compound 31]
IC50: 0.51 to 2.99 µM
//
COMPOUND: COc1cc(-c2[nH]c3c(C#N)cnn3c2NC(=O)c2ccc(F)cc2)cc(OC)c1OC [Compound 20]
IC50: 3 to 25 µM
//
COMPOUND: COc1cc(-c2[nH]c3c(C#N)cnn3c2Nc2ccc3c(c2)OCCO3)cc(O)c1OC [Compound 70]
IC50: 0.51 to 2.99 µM
//
COMPOUND: COc1ccc(Nc2c(-c3cc(O)c(OC)c(OC)c3)[nH]c3c(C#N)cnn23)cc1OC [Compound 100]
IC50: < 0.5 µM
//
COMPOUND: COc1cc(-c2[nH]c3c(C#N)cnn3c2Nc2ccc(OC)c(OC)c2)ccc1F [Compound 59]
IC50: 0.51 to 2.99 µM
//
COMPOUND: COc1cc(-c2[nH]c3c(C#N)cnn3c2NC(=O)CBr)cc(OC)c1OC [Compound 53]
IC50: > 25 µM
//
COMPOUND: COC(=O)COc1ccc(-c2[nH]c3c(C#N)cnn3c2Nc2ccc3c(c2)OCCO3)cc1OC [Compound 85]
IC50: < 0.5 µM
//
COMPOUND: COc1ccc(Nc2c(-c3ccc(F)cc3F)[nH]c3c(C#N)cnn23)cc1OC [Compound 36]
IC50: 3 to 25 µM
//
COMPOUND: COc1cccc(CNc2c(-c3cc(OC)c(OC)c(OC)c3)[nH]c3c(C#N)cnn23)c1 [Compound 46]
IC50: 3 to 25 µM
//
COMPOUND: COc1cc(-c2[nH]c3c(C#N)cnn3c2Nc2ccc3c(c2)NC(=O)CO3)cc(OC)c1OC [Compound 137]
IC50: < 0.5 µM
//
COMPOUND: COc1cc(-c2[nH]c3c(C#N)cnn3c2Nc2ccc(CNC(=O)c3ccc(C#N)nc3)cc2)cc(OC)c1OC [Compound 151]
IC50: 0.51 to 2.99 µM
//
COMPOUND: COc1cc(-c2[nH]c3c(C#N)cnn3c2NC(=O)c2nnc(-c3ccccc3)o2)cc(OC)c1OC [Compound 39]
IC50: 3 to 25 µM
//
COMPOUND: N#Cc1cnn2c(Nc3ccc(Br)cc3)c(-c3ccc(C(N)=O)cc3)[nH]c12 [Compound 98]
IC50: 0.51 to 2.99 µM
//
COMPOUND: COc1cc(-c2[nH]c3c(C#N)cnn3c2Nc2ccc(CNC(=O)c3ccc(C)nc3)cc2)cc(OC)c1OC [Compound 154]
IC50: 0.51 to 2.99 µM
//
COMPOUND: COc1ccc(CC(=O)Nc2c(-c3cc(OC)c(OC)c(OC)c3)[nH]c3c(C#N)cnn23)cc1OC [Compound 42]
IC50: > 25 µM
//
COMPOUND: COc1cc(-c2[nH]c3c(C#N)cnn3c2Nc2ccc(CNC(=O)c3cccnc3C)cc2)cc(OC)c1OC [Compound 152]
IC50: < 0.5 µM
//
COMPOUND: COc1cc(-c2[nH]c3c(C#N)cnn3c2Nc2ccc(CNC(=O)c3ccncc3)cc2)cc(OC)c1OC [Compound 150]
IC50: 0.51 to 2.99 µM
//
COMPOUND: COc1cc(-c2[nH]c3c(C#N)cnn3c2Nc2ccc(F)c(F)c2)cc(OC)c1OC [Compound 64]
IC50: 0.51 to 2.99 µM
//
COMPOUND: COc1ccc(Nc2c(-c3ccc4[nH]ccc4c3)[nH]c3c(C#N)cnn23)cc1OC [Compound 5]
IC50: 0.51 to 2.99 µM
//
COMPOUND: COc1ccc(Nc2c(-c3ccc(OC)c(OC4CCCC4)c3)[nH]c3c(C#N)cnn23)cc1OC [Compound 106]
IC50: < 0.5 µM
//
COMPOUND: COc1cc(-c2[nH]c3c(C#N)cnn3c2Nc2cccc(CNC(=O)c3cccnc3)c2)cc(OC)c1OC [Compound 146]
IC50: 0.51 to 2.99 µM
//
COMPOUND: COc1ccc(Nc2c(-c3ccc(C(N)=O)cc3)[nH]c3c(C#N)cnn23)cc1OC [Compound 103]
IC50: < 0.5 µM
//
COMPOUND: N#Cc1cnn2c(Nc3ccc4c(c3)OCCO4)c(-c3ccc4c(c3)NC(=O)CO4)[nH]c12 [Compound 50]
IC50: 0.51 to 2.99 µM
//
COMPOUND: COc1ccc2[nH]cc(-c3[nH]c4c(C#N)cnn4c3Nc3ccc(OC)c(OC)c3)c2c1 [Compound 4]
IC50: 0.51 to 2.99 µM
//
COMPOUND: COc1ccc(-c2[nH]c3c(C#N)cnn3c2Nc2ccc(NC(C)=O)cc2)cc1OC [Compound 69]
IC50: 0.51 to 2.99 µM

====

Target: Syk kinase (Homo sapiens, UniProt P43405)
Experiment: ELISA-based Syk kinase assay (phosphorylation of HS1 peptide substrate by isolated Syk kinase)
Conditions: IC50 of Syk kinase inhibition; 2 μM ATP, 2 μM peptide substrate
pIC50: −log10 of the molar value.

MOLECULE: COC(=O)c1cccc(Nc2c(-c3cc(OC)c(OC)c(OC)c3)[nH]c3c(C#N)cnn23)c1 [Compound 67]
pIC50: 5.52 to 6.29
--
MOLECULE: COc1cc(-c2[nH]c3c(C#N)cnn3c2Nc2cccc(CNC(=O)c3ccncc3)c2)cc(OC)c1OC [Compound 148]
pIC50: > 6.30
--
MOLECULE: CC(=O)Nc1ccc(Nc2c(-c3ccc4c(c3)OCCO4)[nH]c3c(C#N)cnn23)cc1 [Compound 63]
pIC50: 4.60 to 5.52
--
MOLECULE: COc1cc(Nc2c(-c3ccc(OCC(N)=O)c(OC)c3)[nH]c3c(C#N)cnn23)ccc1F [Compound 139]
pIC50: > 6.30
--
MOLECULE: COc1cc(Nc2c(-c3ccc(OCCO)c(OC)c3)[nH]c3c(C#N)cnn23)ccc1F [Compound 116]
pIC50: > 6.30
--
MOLECULE: COc1cc(-c2[nH]c3c(C#N)cnn3c2Nc2ccc3c(c2)OCCO3)cc(OC)c1OC [Compound 49]
pIC50: 5.52 to 6.29
--
MOLECULE: CC(=O)Nc1ccc(-c2[nH]c3c(C#N)cnn3c2Nc2cccc(NC(C)=O)c2)cc1 [Compound 34]
pIC50: 4.60 to 5.52
--
MOLECULE: CC(=O)Nc1ccc(-c2[nH]c3c(C#N)cnn3c2Nc2cccc(C(F)(F)F)c2)cc1 [Compound 3]
pIC50: 5.52 to 6.29

====

Here the recorded pIC50 is given for each entry.
Target: UniProt P43405
Assay: ELISA-based Syk kinase assay (phosphorylation of HS1 peptide substrate by isolated Syk kinase)
Conditions: IC50 of Syk kinase inhibition; 2 μM ATP, 2 μM peptide substrate
pIC50: −log10 of the molar value.

COMPOUND: COc1cc(-c2[nH]c3c(C#N)cnn3c2Nc2cccc(CNC(=O)c3ccccn3)c2)cc(OC)c1OC [Compound 147]
TESTED SYSTEM: UniProt P43405
pIC50: > 6.30
--
COMPOUND: COc1ccc(Nc2c(-c3ccc(N4CCOCC4)cc3)[nH]c3c(C#N)cnn23)cc1OC [Compound 104]
TESTED SYSTEM: UniProt P43405
pIC50: 5.52 to 6.29
--
COMPOUND: COc1ccc(Nc2c(-c3ccc(OCCN4CCOCC4)cc3)[nH]c3c(C#N)cnn23)cc1OC [Compound 124]
TESTED SYSTEM: UniProt P43405
pIC50: 5.52 to 6.29
--
COMPOUND: COc1cc(-c2[nH]c3c(C#N)cnn3c2Nc2ccc(N3CCCC3)c(F)c2)cc(OC)c1OC [Compound 134]
TESTED SYSTEM: UniProt P43405
pIC50: 5.52 to 6.29
--
COMPOUND: COc1ccc(-c2[nH]c3c(C#N)cnn3c2Nc2cccc(NC(C)=O)c2)cc1OC [Compound 32]
TESTED SYSTEM: UniProt P43405
pIC50: 5.52 to 6.29
--
COMPOUND: COc1ccc(Nc2c(-c3cc(OC)c(OC)c(OC)c3)[nH]c3c(C#N)cnn23)cc1OC [Compound 28]
TESTED SYSTEM: UniProt P43405
pIC50: > 6.30
--
COMPOUND: COc1cccc(Nc2c(-c3cc(OC)c(OC)c(OC)c3)[nH]c3c(C#N)cnn23)c1 [Compound 14]
TESTED SYSTEM: UniProt P43405
pIC50: 5.52 to 6.29
--
COMPOUND: COc1ccc(Nc2c(-c3ccc4c(c3)OCCO4)[nH]c3c(C#N)cnn23)cc1OC [Compound 38]
TESTED SYSTEM: UniProt P43405
pIC50: 5.52 to 6.29
